Target: UniProt:P11229
Sequence (P11229 1-460): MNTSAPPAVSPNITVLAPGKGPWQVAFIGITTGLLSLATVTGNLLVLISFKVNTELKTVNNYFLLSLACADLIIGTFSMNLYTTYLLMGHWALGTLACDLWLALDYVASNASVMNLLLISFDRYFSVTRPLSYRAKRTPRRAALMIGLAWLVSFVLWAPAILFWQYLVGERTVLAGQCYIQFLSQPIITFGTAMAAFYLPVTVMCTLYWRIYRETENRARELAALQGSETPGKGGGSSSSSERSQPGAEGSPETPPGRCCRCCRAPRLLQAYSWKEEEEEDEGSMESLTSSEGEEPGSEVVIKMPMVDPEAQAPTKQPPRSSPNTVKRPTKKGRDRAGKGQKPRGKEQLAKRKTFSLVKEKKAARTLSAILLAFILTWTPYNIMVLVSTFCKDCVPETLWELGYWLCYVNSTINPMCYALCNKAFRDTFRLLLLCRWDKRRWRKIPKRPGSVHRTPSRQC
Experiment: mAChR M1 cell-based functional assay: calcium mobilization, positive allosteric modulator mode (increase in EC20 acetylcholine response)
Conditions: Table 2; human M1; read-out: Human M1 Emax (%)
endpointName: Emax (%)
Enter your answer as a number in %; do not include the unit.

CN1CC(NC(=O)c2cc(Cc3ccc(-n4cccn4)cc3)c3sccc3n2)CC1=O (stereo not shown) [Compound 438]: 63.1
Cc1nc(-c2ccc(Cc3cc(C(=O)N4CCC[C@@H](O)C4)nc4ccsc34)cc2)co1 [Compound 173]: 37
CN1CCC(NC(=O)c2cc(Cc3ccc(-n4cccn4)cc3)c3sccc3n2)CC1 [Compound 443]: 66.6

Attention now shifts to the item below.
The measured Emax associated with Cn1ccc2nc(C(=O)NC3CCOCC3)cc(Cc3ccc(-c4nccs4)cc3)c21 [Compound 480] reads 57.2
